system: His-DciA 4A (UniProt A0A0H3C5R2 1-179, H98A;Q99A;Q102A;R106A)
Sequence (A0A0H3C5R2 entry or part of it H98A;Q99A;Q102A;R106A): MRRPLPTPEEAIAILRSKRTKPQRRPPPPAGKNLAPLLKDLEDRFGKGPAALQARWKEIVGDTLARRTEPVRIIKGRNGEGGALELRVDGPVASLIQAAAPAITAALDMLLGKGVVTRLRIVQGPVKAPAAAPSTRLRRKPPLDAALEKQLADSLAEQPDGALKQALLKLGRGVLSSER
assay_info: EMSA; 150 mM K-glutamate; EMSA: 20 mM Tris-HCl pH 7.5, 10 mM Mg acetate, 50 or 150 mM K-glutamate, 0.1 mg/ml BSA, 10% glycerol, 2 mM ATP, 12.5 nM DNA, 5 min on ice; M13 pull-down: Tris pH 7.5, 10 mM Mg acetate, 50 mM K-glutamate, 0.1 mM ATP, 0.1 mg/ml BSA, 30 C
test_parameters: protein: recombinant; tags: N-terminal His6; label: 5'-FAM
endpoint_name: Kd (nM)
Write the number in nM without appending the unit.

# get_value(readout='Kd', item= 80-mer oligo 1790 (ssDNA) DNA: TCCTTGTTATCCACAGGGCAGTTTTTTTTTTTTTTTTTTTTTTTTTTTTTTTTTTTTTTTTGTGCGATATAGTTCTCCGA ) 115
